Test system: NCI-H460 lung
Entry note: the call must match one of active, inactive

Example results:
{"columns": ["compound", "system_under_test", "label"],
 "data": [
  ["CCOC(=O)n1cc(C2=C(c3cn(C)c4ccccc34)COC2=O)c2ccccc21", "NCI-H460 lung", "active"],
  ["NC1CCC(Nc2nc(NCc3ccc(-c4cccs4)nc3)c3ncn(C4CCCC4)c3n2)CC1 (centres undefined)", "NCI-H460 lung", "active"],
  ["O=C(c1ccccc1)c1ccc(Oc2ccc([N+](=O)[O-])cc2[N+](=O)[O-])cc1", "NCI-H460 lung", "inactive"],
  ["COc1cc(-c2nc3ccccc3s2)ccc1NC(=O)COc1ccc(Cl)cc1", "NCI-H460 lung", "inactive"],
  ["O=C(CN(/C=C/C(=O)C(F)(F)F)c1ccc(Cl)cc1)c1ccccc1", "NCI-H460 lung", "inactive"]
]}

Please state the recorded outcome for this compound: O=C(/C(=C\c1ccc([N+](=O)[O-])cc1)S(=O)Cc1ccc(F)cc1)c1ccc(F)cc1 (centres undefined)
inactive

Please do the same for CC(=O)c1cc(C(=O)c2ccc3c(c2)Sc2ccccc2N3)c2c(C)cc(C)cn12 as well.
active

Please do the same for Cn1cc(C2=C(c3cn(C)c4c([N+](=O)[O-])cccc34)C(=O)NC2=O)c2ccccc21 as well.
inactive

Please do the same for O=C1c2nsnc2C(=O)c2c(F)c(F)c(F)c(F)c21 as well.
inactive

Please do the same for O=C1NC(=O)C(=C/C=C/c2ccccc2)C(=O)N1 as well.
inactive

Please do the same for O=[N+]([O-])c1ccc(Sc2ncnc3nc[nH]c23)c2nonc12 as well.
inactive

Please do the same for CCCCCCCCN(CCCCCCCC)CCCCCCNc1cc(OC)cc2cccnc12 as well.
inactive

Please do the same for Cl.Fc1c[c-]c(-c2ccccn2)c(F)c1.[Pt].c1ccc(P(c2ccccc2)C([PH+](c2ccccc2)c2ccccc2)[PH+](c2ccccc2)c2ccccc2)cc1 as well.
inactive

Please do the same for O=C1C(=O)c2c(nc3ccc(Br)cn23)-c2ccccc21 as well.
inactive

Please do the same for COc1ccc(C(=O)c2cc(OC)c(OC)c(OC)c2)cc1/C=C/C(=O)c1ccc(OC)c(OC)c1 as well.
inactive

Please do the same for COc1ccc2c(c1)[nH]c(=O)c1c3cc(OC)ccc3cn21 as well.
active

Please do the same for Cc1ccc(C(SCC(N)C(=O)O)(c2ccc(C)cc2)c2ccc(C)cc2)cc1 (centres undefined) as well.
inactive

Please do the same for COC1CCN(C(=O)c2cc(Cc3n[nH]c(=O)c4ccccc34)ccc2F)CC1 as well.
inactive

Please do the same for NC(N)=N/N=C/c1c(-c2cc(Cl)sc2Cl)nc2sccn12 as well.
inactive

----------
Test system: OVCAR-3 ovarian
assay_explanation: NCI tumour cell line growth inhibition, 48 h
assay_endpoint: TGI

Example entries begin here.
{"columns": ["compound", "TGI"],
 "data": [
  ["O=[N+]([O-])c1ccccc1N/N=C\\c1c[nH]c2ccccc12", "> 64.9 µM"],
  ["COC1CCN(C(=O)c2cc(Cc3n[nH]c(=O)c4ccccc34)ccc2F)CC1", "> 100 µM"],
  ["COc1cc2nc(SCC(=O)Nc3cc(OC)c(OC)c(OC)c3)n(Cc3ccccc3)c(=O)c2cc1OC", "50.3 µM"],
  ["O=C(Nc1ccccc1)N(C1=NCC(CI)S1)c1ccc(F)cc1F (configuration not stated)", "> 100 µM"],
  ["CC(=O)CSc1c(-c2ccccc2)c(=O)n(-c2ccccc2)c(=S)n1-c1ccccc1", "> 100 µM"]
]}

Can you share its TGI? I mean this compound: Cc1ccc(NC(=O)C(=O)C(C#N)c2nc(-c3ccc(-c4ccccc4)cc3)cs2)c(C)c1 (configuration not stated)
> 100 µM

Please do the same for CC(=O)NC1=C(NCCN(C)C)C(=O)c2ccccc2C1=O as well.
> 50 µM

Please do the same for CCN1C(=O)N(CC)C2Nn3c(s/c(=C\c4ccccc4Br)c3=O)=NC21 (configuration not stated) as well.
5.02 µM

Please do the same for Cc1cc2c(cc1C)[n+](=O)c(C(=O)C/C(=N/OCCCc1ccccc1)C(=O)Nc1cc(Cl)ccc1Cl)c(C)n2[O-] as well.
> 100 µM

Please do the same for CC(SC(=S)N1CCOCC1)C(=O)Nc1nnc(-c2ccccc2)o1 (configuration not stated) as well.
> 100 µM

Please do the same for CN(C)CCNC(=O)C(C)(C)Oc1ccc(C(=O)c2ccc(Cl)cc2)cc1Cl as well.
25.7 µM
